Hello, the source for this data is ChEMBL document CHEMBL6092140, in case you need it.

molecular target: Casein kinase II subunit alpha' (Homo sapiens); assay: Inhibition of […] (unknown origin) assessed as residual activity relative to control
Give measured Activity for each item. Keep answers brief.
Reply numerically in %, unit not repeated.

Ask: Supply reported Activity belonging to this molecule: O=C(O)c1ccc2c(c1)nc(Nc1cccc(Cl)c1)c1ccncc12 [SILMITASERTIB]
Result: 2

Ask: Supply reported Activity belonging to this molecule: CC1=CN2C(Nc3cccc(Cl)c3)=Nc3cc(-c4noc(=O)[nH]4)ccc3C2N1 (stereo not drawn)
Result: 105

Ask: Supply reported Activity belonging to this molecule: Cc1cn2c(Nc3cccc(C#N)c3)nc3cc(C(=O)O)ccc3c2n1
Result: 38

---

assay: Inhibition of wild type ATG12-ATG3 protein protein interaction (unknown origin) expressed in HEK293T cells preincubated for ATG12 for 1 hr followed by ATG3 addition by luminescence based microplate analysis; type: cell-based, Homo sapiens
Give measured pIC50 for each item. Keep answers brief.
Just the number, please; pIC50 means minus log10 of the concentration in mol/L.

Ask: Supply reported pIC50 belonging to this compound: Cc1cn2c(Nc3ccnc(Cl)c3)nc3cc(C(=O)O)ccc3c2n1
Result: 4.15

Ask: Supply reported pIC50 belonging to this compound: COc1nc(Nc2cccc(Cl)c2)nc2cc(C(=O)O)ccc12
Result: 4.04

Ask: Supply reported pIC50 belonging to this compound: O=C(O)c1ccc2c(c1)nc(Nc1cccc(Cl)c1)n1cc(-c3ccccc3)nc21
Result: 5.05

Ask: Supply reported pIC50 belonging to this compound: O=C(O)c1ccc2c(c1)nc(Nc1cccc(Cl)c1)c1cccnc12
Result: 5.22

Ask: Supply reported pIC50 belonging to this compound: Cn1cnc2c3ccc(C(=O)O)cc3nc(Nc3cccc(Cl)c3)c21
Result: 4.21

Ask: Supply reported pIC50 belonging to this compound: Cc1cn2c(Nc3cccc(F)c3)nc3cc(C(=O)O)ccc3c2n1
Result: 4.05

Ask: Supply reported pIC50 belonging to this compound: Clc1cccc(Nc2nc3cc(-c4nnn[nH]4)ccc3c3ncccc23)c1
Result: 4.19

Ask: Supply reported pIC50 belonging to this compound: O=C(O)c1ccc2c(c1)nc(Nc1cccc(Cl)c1)n1ccnc21
Result: 4.85

Ask: Supply reported pIC50 belonging to this compound: CC1=CN2C(Nc3cccc(Cl)c3)=Nc3cc(-c4noc(=O)[nH]4)ccc3C2N1 (stereo unspecified)
Result: 4.04

Ask: Supply reported pIC50 belonging to this compound: CCc1cn2c(Nc3cccc(Cl)c3)nc3cc(C(=O)O)ccc3c2n1
Result: 4.62

Ask: Supply reported pIC50 belonging to this compound: Cc1cn2c(NC34CC5CC(CC(C5)C3)C4)nc3cc(C(=O)O)ccc3c2n1
Result: 4.60

Ask: Supply reported pIC50 belonging to this compound: O=C(O)c1ccc2cnc(Nc3cccc(Cl)c3)nc2c1
Result: 4.21

Ask: Supply reported pIC50 belonging to this compound: O=C(O)c1ccc2c(c1)nc(Nc1cccc(Cl)c1)c1ccccc12
Result: 4.35

Ask: Supply reported pIC50 belonging to this compound: Cc1scc2c1c(Nc1cccc(Cl)c1)nc1cc(C(=O)O)ccc12
Result: 4.85

Ask: Supply reported pIC50 belonging to this compound: Cc1nsc2c1c(Nc1cccc(Cl)c1)nc1cc(C(=O)O)ccc12
Result: 4.96

Ask: Supply reported pIC50 belonging to this compound: CC(C)c1cn2c(Nc3cccc(Cl)c3)nc3cc(C(=O)O)ccc3c2n1
Result: 4.52

Ask: Supply reported pIC50 belonging to this compound: Cn1ncc2c3ccc(C(=O)O)cc3nc(Nc3cccc(Cl)c3)c21
Result: 4.72

Ask: Supply reported pIC50 belonging to this compound: Cc1cn2c(Nc3cccc(I)c3)nc3cc(C(=O)O)ccc3c2n1
Result: 5.00

Ask: Supply reported pIC50 belonging to this compound: O=C(O)c1ccc2c(c1)nc(Nc1cccc(Cl)c1)c1ccsc12
Result: 4.85
